Test System: recombinant homotrimeric HA A/Netherlands/219/03 H7N7 (Influenza A virus A/Netherlands/219/03(H7N7))
Procedure Text: protein microarray, purified IgG, trimeric HA
Settings: remark: other sources report otherwise
Parameter: Trimeric HA Binding: RLU (RLU)

Binder	Number
TCN-557 (5081_A04) (antibody, V domains shown) VH: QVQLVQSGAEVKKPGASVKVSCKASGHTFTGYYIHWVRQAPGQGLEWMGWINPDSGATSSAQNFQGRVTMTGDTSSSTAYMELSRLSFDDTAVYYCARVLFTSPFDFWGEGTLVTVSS VL: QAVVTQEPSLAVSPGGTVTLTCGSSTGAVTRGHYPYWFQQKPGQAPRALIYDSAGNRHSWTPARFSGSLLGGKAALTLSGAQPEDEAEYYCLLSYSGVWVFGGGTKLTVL	7250
TCN-558 (5248_H10b) (antibody, V domains shown) VH: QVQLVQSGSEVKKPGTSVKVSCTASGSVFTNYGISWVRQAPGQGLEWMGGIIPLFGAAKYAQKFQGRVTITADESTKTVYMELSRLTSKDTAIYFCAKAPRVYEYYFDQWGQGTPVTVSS VL: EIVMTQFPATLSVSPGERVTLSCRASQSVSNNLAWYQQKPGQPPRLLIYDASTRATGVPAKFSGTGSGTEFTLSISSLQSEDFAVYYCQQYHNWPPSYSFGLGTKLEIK	623
